Assay: ATG_PXRE_CIS: Attagene CIS-FACTORIAL HepG2 Assay for human Pregnane X Receptor Element (PXRE) (AID 2282957)
Settings: HepG2 Attagene CIS-FACTORIAL PXRE reporter, mRNA; actives raise or lower the signal
Activity calls are given as the source filed them. How the source made its calls: active means hit-call score of the fitted dose curve at least 0.9, where 1 is the maximum; inactive means score below 0.9.
Possible outcomes: True = active, False = inactive

molecule | group-label
NC(=O)N(O)[C@@H]1C=C[C@H](Oc2cccc(Oc3ccc(F)cc3)c2)C1 | True
CN(C)C=O | False
CC#C[C@]1(O)CC[C@H]2[C@@H]3CCC4=CC(=O)CCC4=C3[C@@H](c3ccc(N(C)C)cc3)C[C@@]21C | True
CN1CCC[C@H]1c1cccnc1 | False
CC(C)(C)c1ccc(O)c(C(C)(C)C)c1 | True
N#C[C@@H]1CC(F)(F)CN1C(=O)CNC1CC2CCC(C1)N2c1ncccn1 (some centres not stated) | True
CCCCCCCCC(=O)O | False
C=C(C)C(=O)OCCC(F)(F)C(F)(F)C(F)(F)C(F)(F)C(F)(F)C(F)(F)F | False
Nc1cccc2c(N)cccc12 | False
CCCCCCCCCCCCc1ccccc1S(=O)(=O)O | True
CC(C)CCCCCCOC(=O)CCCCC(=O)OCCCCCCC(C)C | True
COCC(C)O (configuration not stated) | False

###

Biological target: human Retinoid X Receptor beta (RXRb), RXRB (gene 6257) (UniProt P28702)
Sequence (P28702 whole entry, looked up): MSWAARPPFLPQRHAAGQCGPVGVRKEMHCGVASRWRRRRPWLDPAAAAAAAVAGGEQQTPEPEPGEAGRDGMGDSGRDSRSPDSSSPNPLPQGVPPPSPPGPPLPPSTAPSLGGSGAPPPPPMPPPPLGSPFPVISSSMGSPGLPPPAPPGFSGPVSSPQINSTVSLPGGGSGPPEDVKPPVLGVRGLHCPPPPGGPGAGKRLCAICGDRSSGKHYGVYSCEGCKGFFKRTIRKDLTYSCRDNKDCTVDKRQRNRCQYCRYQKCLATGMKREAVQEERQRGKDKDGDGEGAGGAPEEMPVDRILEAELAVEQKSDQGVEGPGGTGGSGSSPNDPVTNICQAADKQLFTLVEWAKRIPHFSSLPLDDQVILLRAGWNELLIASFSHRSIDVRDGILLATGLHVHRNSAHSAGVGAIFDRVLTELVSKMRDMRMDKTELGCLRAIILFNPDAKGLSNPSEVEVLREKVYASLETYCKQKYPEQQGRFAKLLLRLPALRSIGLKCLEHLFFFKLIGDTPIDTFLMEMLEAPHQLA
Experiment: ATG_RXRb_TRANS: Attagene TRANS-FACTORIAL HepG2 Assay for human Retinoid X Receptor beta (RXRb) (AID 2283013)
Inconclusive results are not listed. Calls of active or inactive are those of the source. How the source made its calls: active means hit-call score of the fitted dose curve at least 0.9, where 1 is the maximum; inconclusive means response in the unintended direction; inactive means score below 0.9.
Outcomes: active, inactive

molecule | group-label
CCCCC(CC)COC(=O)CCCCC(=O)OCC(CC)CCCC (configuration not stated) | active
CC[C@H](C)[C@@H](C(=O)O)n1sc2ccccc2c1=O | inactive
CCC(C)(C)C1CCC(O)CC1 (configuration not stated) | active
CC(C)(C)c1cccc(C(C)(C)C)c1O | active
CC[C@H](c1ccc(O)cc1)[C@@H](CC)c1ccc(O)cc1 | active
Nc1cccc2c(N)cccc12 | inactive
CCCCCCCCCCCCCC[N+](C)(C)C | inactive

###

Assay: APR_HepG2_P-H2AX_72hr: Apredica 72-hour HepG2 Assay for H2AX Phosphorylation (AID 2282916);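 further: phospho-histone H2A.x immunostain intensity per cell marking DNA damage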
Conditions: imaging, actives raise or lower the signal
Active and inactive are the calls of the source. The calls were made as follows: active = hit-call score of the fitted dose curve at least 0.9, where 1 is the maximum; inactive = score below 0.9.
Outcome codes: class 1 (active), class 0 (inactive)

compound | group-label
C=C(C)C(=O)OCCC(F)(F)C(F)(F)C(F)(F)C(F)(F)C(F)(F)C(F)(F)F | class 0
CCCCOCCO | class 0
COCC(C)OCC(C)O (configuration not stated) | class 0
CCCCC(CC)COC(=O)CCCCC(=O)OCc1ccccc1 (configuration not stated) | class 0
CN1CCN(c2ccccc2/C=C2\SCCN(c3ccc(Cl)c(Cl)c3)C2=O)CC1 | class 0
CCC(=C(c1ccc(O)cc1)c1ccc(OCCN(C)C)cc1)c1ccccc1 | class 0
CC(C)CCCCCCOC(=O)CCCCC(=O)OCCCCCCC(C)C | class 0
CCCCCCCCC(=O)O | class 0
Oc1cc2ccccc2c2ccccc12 | class 1
C[C@@H]1C[C@H]2[C@@H]3CCC4=CC(=O)C=C[C@]4(C)[C@@]3(F)[C@@H](O)C[C@]2(C)[C@@]1(O)C(=O)COP(=O)(O)O | class 1
CC(C)(C)c1ccc(O)c(C(C)(C)C)c1 | class 1
OC1CCCCC1 | class 0
c1ccc2c(c1)Cc1ccccc1-2 | class 0
NC(=O)N1C(=O)C(C(=O)c2cc(Cl)cs2)c2cc(F)c(Cl)cc21 (configuration not stated) | class 1
CC(C)(C)c1cc(C(C)(C)C)c(O)c(C(C)(C)C)c1 | class 0
Cc1oc(-c2ccccc2)nc1CCOc1ccc(C[C@H](Nc2ccccc2C(=O)c2ccccc2)C(=O)O)cc1 | class 1
CC(C)(C)c1cccc(C(C)(C)C)c1O | class 0
CCN(CC)CCNc1ccc(CNC=O)c2sc3ccc(OC)cc3c(=O)c12 | class 0
CCCCCCCC(=O)O | class 0
CCCOC(=O)c1ccc(O)cc1 | class 0
NC(=O)N(O)[C@@H]1C=C[C@H](Oc2cccc(Oc3ccc(F)cc3)c2)C1 | class 0
O=[N+]([O-])c1ccc(O)cc1 | class 0
CC(=O)CC(C)(C)O | class 1
CC[C@H](C)[C@@H](C(=O)O)n1sc2ccccc2c1=O | class 0
N#C[C@@H]1CC(F)(F)CN1C(=O)CNC1CC2CCC(C1)N2c1ncccn1 (some centres not stated) | class 0
OCCC(F)(F)C(F)(F)C(F)(F)C(F)(F)C(F)(F)C(F)(F)C(F)(F)C(F)(F)F | class 1
c1ccc2c(c1)ccc1ccccc12 | class 0
CC#C[C@]1(O)CC[C@H]2[C@@H]3CCC4=CC(=O)CCC4=C3[C@@H](c3ccc(N(C)C)cc3)C[C@@]21C | class 0
ClC1=C(Cl)C(Cl)(Cl)C(Cl)=C1Cl | class 0
C#C[C@]1(O)CC[C@H]2[C@@H]3CCC4=CC(=O)CC[C@@H]4[C@H]3CC[C@@]21C | class 0
CCCCCCCCOC(=O)CCCCCCCCC(=O)OCCCCCCCC | class 0
OCCC(F)(F)C(F)(F)C(F)(F)C(F)(F)C(F)(F)C(F)(F)F | class 0
CC(=O)NC1(c2cccc(F)c2)CCN(CC[C@@]2(c3ccc(Cl)c(Cl)c3)CN(c3ccccc3)C(=O)CO2)CC1 | class 1
COc1ccc([N+](=O)[O-])cc1N | class 0
O=c1c(-c2ccc(O)cc2)coc2cc(O)ccc12 | class 0
Cc1cc(C)c(O)c(C)c1 | class 0
Cc1cc(CCN2CCN(c3nsc4ccccc34)CC2)cc2c1NC(=O)CC2(C)C | class 1

###

Target: Paired box protein Pax-6 (Homo sapiens) (UniProt P26367)
Sequence (P26367 whole entry, looked up): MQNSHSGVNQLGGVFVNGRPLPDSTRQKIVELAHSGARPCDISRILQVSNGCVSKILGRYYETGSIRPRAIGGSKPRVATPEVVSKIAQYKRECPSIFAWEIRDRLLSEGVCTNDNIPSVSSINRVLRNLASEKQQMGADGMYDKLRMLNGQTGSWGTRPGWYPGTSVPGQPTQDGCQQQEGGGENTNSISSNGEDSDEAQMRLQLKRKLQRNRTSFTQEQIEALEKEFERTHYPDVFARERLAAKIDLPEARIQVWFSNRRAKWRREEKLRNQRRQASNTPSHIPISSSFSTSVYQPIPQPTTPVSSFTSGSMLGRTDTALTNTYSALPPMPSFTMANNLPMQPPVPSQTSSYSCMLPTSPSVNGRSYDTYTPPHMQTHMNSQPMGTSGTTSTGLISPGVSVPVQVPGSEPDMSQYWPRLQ
Assay: ATG_Pax6_CIS: Attagene CIS-FACTORIAL HepG2 Assay for human Paired Box 6 (PAX6) (AID 2282956)
Conditions: HepG2 CIS-FACTORIAL PAX6 reporter transcription, RNA readout; actives raise or lower the signal
Calls of active or inactive are those of the source. Rule for the calls: active = hit-call score of the fitted dose curve at least 0.9, where 1 is the maximum; inactive = score below 0.9.
Possible outcomes: 1 (yes) for active, 0 (no) for inactive

compound-structure-string | group-label
O=C(/C=C/c1ccc(O)cc1)CC(=O)/C=C/c1ccc(O)cc1 | 1 (yes)
CC(C)CCCCCCOC(=O)CCCCC(=O)OCCCCCCC(C)C | 0 (no)
CN1CCN(c2ccccc2/C=C2\SCCN(c3ccc(Cl)c(Cl)c3)C2=O)CC1 | 0 (no)
Cc1oc(-c2ccccc2)nc1CCOc1ccc(C[C@H](Nc2ccccc2C(=O)c2ccccc2)C(=O)O)cc1 | 1 (yes)
O=C1OC2(c3ccccc31)c1cc(Br)c(O)c(Br)c1Oc1c2cc(Br)c(O)c1Br | 0 (no)
CCCCOCCO | 0 (no)

###

Read-out: Monokine induced gamma interferon (MIG), CXCL9 (gene 4283)
Experiment: BSK_BE3C_MIG: BioMAP Diversity Plus: BE3C Assay for Monokine induced gamma interferon (MIG) Biomarker Activity (AID 2283035);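 on Outcome: MIG protein measured by ELISA in BE3C cultures after 24 h of dosing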
Conditions: primary human bronchial epithelial cells; actives raise or lower the signal
Activity calls are given as the source filed them. Rule for the calls: active = hit-call score of the fitted dose curve at least 0.9, where 1 is the maximum; inactive = score below 0.9.
Outcome codes: active, inactive

compound-structure-string | group-label
c1ccc2c(c1)ccc1ccccc12 | inactive
CC(C)CCCCCCOC(=O)CCCCC(=O)OCCCCCCC(C)C | inactive
CCCCCCCCC(=O)O | inactive
CCCCOCCO | inactive
NC(=O)N(O)[C@@H]1C=C[C@H](Oc2cccc(Oc3ccc(F)cc3)c2)C1 | inactive
CCCCCCCCOC(=O)CCCCCCCCC(=O)OCCCCCCCC | inactive
CCCCCCCCCCCCCC[N+](C)(C)C | active

###

Read-out: Vascular endothelial growth factor receptor 2 (Homo sapiens) (UniProt P35968)
Assay: BSK_4H_VEGFRII: BioMAP Diversity Plus: 4H Assay for Vascular endothelial growth factor receptor 2 (VEGFR2) Biomarker Activity (AID 2283031)
Conditions: primary human endothelial cells (HUVEC); actives raise or lower the signal
The source made the active and inactive calls. How the source made its calls: active means hit-call score of the fitted dose curve at least 0.9, where 1 is the maximum; inactive means score below 0.9.
Possible outcomes: y (active), n (inactive)

compound-structure-string | group-label
CC[C@H](c1ccc(O)cc1)[C@@H](CC)c1ccc(O)cc1 | n
c1ccc2c(c1)ccc1ccccc12 | n
CCCOc1sc(C(=O)N2CCC(c3cc(CN)ccc3F)CC2)c(C)c1Br | y
OC1CCCCC1 | n

###

Target: Bile acid receptor (Homo sapiens) (UniProt Q96RI1)
Sequence (Q96RI1 whole entry, looked up): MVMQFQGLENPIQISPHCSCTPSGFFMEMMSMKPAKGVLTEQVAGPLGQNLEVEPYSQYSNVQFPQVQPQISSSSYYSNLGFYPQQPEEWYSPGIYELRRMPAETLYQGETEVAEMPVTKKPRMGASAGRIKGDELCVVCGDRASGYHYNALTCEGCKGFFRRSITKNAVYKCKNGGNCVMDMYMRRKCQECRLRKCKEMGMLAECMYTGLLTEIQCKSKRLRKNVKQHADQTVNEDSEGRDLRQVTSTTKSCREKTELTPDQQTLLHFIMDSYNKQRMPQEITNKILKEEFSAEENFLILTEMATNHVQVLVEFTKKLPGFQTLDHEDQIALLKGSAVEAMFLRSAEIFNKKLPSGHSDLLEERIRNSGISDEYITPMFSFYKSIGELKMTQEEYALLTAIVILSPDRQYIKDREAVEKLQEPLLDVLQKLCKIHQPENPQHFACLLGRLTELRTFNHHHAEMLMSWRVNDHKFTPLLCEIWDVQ
Assay: ATG_FXR_TRANS: Attagene TRANS-FACTORIAL HepG2 Assay for Farnesoid X Receptor (FXR) (AID 2282979);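 further: hits raise reporter mRNA above DMSO so AC50 marks FXR activation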
Conditions: HepG2 Attagene TRANS FXR-GAL4 reporter transcription
Records with an inconclusive call do not appear. Activity calls are given as the source filed them. The calls were made as follows: active = hit-call score of the fitted dose curve at least 0.9, where 1 is the maximum; inconclusive = response in the unintended direction; inactive = score below 0.9.
Labels: active, inactive

compound | group-label
NC(=O)N(O)[C@@H]1C=C[C@H](Oc2cccc(Oc3ccc(F)cc3)c2)C1 | inactive
Nc1cccc2c(N)cccc12 | inactive
CC#C[C@]1(O)CC[C@H]2[C@@H]3CCC4=CC(=O)CCC4=C3[C@@H](c3ccc(N(C)C)cc3)C[C@@]21C | inactive
CCN(CC)CCNc1ccc(CNC=O)c2sc3ccc(OC)cc3c(=O)c12 | active
CCCOC(=O)c1ccc(O)cc1 | inactive
COCC(C)OCC(C)O (stereo unspecified) | inactive
O=C(OCCOCCOC(=O)c1ccccc1)c1ccccc1 | inactive
CCCCCCCCOC(=O)CCCCCCCCC(=O)OCCCCCCCC | inactive
O=C1OC2(c3ccccc31)c1cc(Br)c(O)c(Br)c1Oc1c2cc(Br)c(O)c1Br | inactive
CC(=O)NC1(c2cccc(F)c2)CCN(CC[C@@]2(c3ccc(Cl)c(Cl)c3)CN(c3ccccc3)C(=O)CO2)CC1 | inactive
CCCCCCCCCCCCN1CCCC1=O | inactive
